- System: SK-MEL-28 melanoma
- EXPERIMENTAL DETAILS: NCI-60 one-dose screen, 48 h (100 = growth as untreated, 0 = no growth, -100 = all killed)
- DETAILS: 10 µM unless noted
- Description: Growth inhibition of the SK-MEL-28 human tumor cell line is measured as a screen for anti-cancer activity. Cells are grown in 96 well plates and exposed to the test compound for 48 hours. Compounds are tested at a single concentration, which is 10^-5 M for most compounds. The reported endpoint is percent growth (GI% or GIPRCNT), where numbers from 0 - 100% represent growth inhibition, and numbers from -100% - 0 represent cell death. For example, a value of 40 represents 60% growth inhibition. […]
About 83,000 compounds went through this panel and 20% of them were active in at least one assay; those are over-represented in the sample as a whole.
Simple rule here: growth less than 60% is true (1), otherwise false (0).

Consider the worked cases shown below.
COc1cc(Nc2cn[nH]c2-c2ccc(Cl)cc2)cc(OC)c1OC :: true (1)
CCc1nnc(NC(=O)c2nnn(-c3ccccc3)c2-c2ccco2)s1 :: false (0)
c1cc(NCCc2ccncc2)nc(-n2cnc3ccccc32)c1 :: false (0)

(Q) Is it true that growth reported for `Cc1ccc(-c2nc(N3CCN(C(=O)c4ccc(OC(F)(F)F)cc4)CC3)c3ccccc3n2)cc1` is less than 60%?
(A) false (0)

(Q) Is it true that growth reported for COC1=C(C)C(=O)c2c(c(CCCl)c3n2CCC3O)C1=O (stereo unspecified) is less than 60%?
(A) true (1)
